Source listed as paper PMC12027149.

- experiment: MTT cytotoxicity assay on differentiated SH-SY5Y cells
- Assay type: cell-based, human
- measurement-conditions: human, 0.05–5 mM, MTT, read-out: maximum response (cytotoxicity)

| compound | Emax at 24 h [%] |
| --- | --- |
| CNC(C)C(=O)c1ccc(C)cc1 (stereo not shown) [Mephedrone (M), Mephedrone, reference compound] | 73 |

---

- experimental-target: Acetylcholinesterase (AChE, EC 3.1.1.7) (Electrophorus electricus)
- Construct: purchased Sigma-Aldrich
- experiment: Acetylcholinesterase inhibition, modified Ellman colorimetric method
- Type: biochemical
- measurement-conditions: AChE inhibition dose–response curve

| compound | Hillslope |
| --- | --- |
| CC(C(=O)c1ccc(Cl)cc1)N(C)C (racemic) | 2.9 |
| CC(NC(C)(C)C)C(=O)c1ccc(Cl)cc1 (racemic) | 2.7 |
| CCCCNC(C)C(=O)c1cccc(Cl)c1 (racemic) | 1.4 |
| CCN(CC)C(C)C(=O)c1cccc(Cl)c1 (racemic) | 0.9 |
| CCCCNC(C)C(=O)c1ccc(Cl)cc1 (racemic) | 5.1 |
| CC(C(=O)c1cccc(Cl)c1)N1CCCC1 (racemic) | 1.8 |
| CC(C)NC(C)C(=O)c1ccc(Cl)cc1 (racemic) | 2.0 |
| CCNC(C)C(=O)c1ccc(Cl)cc1 (racemic) | 1.2 |
| CC(C(=O)c1ccc(Cl)cc1)N1CCCC1 (racemic) | 1.1 |
| CC(NC(C)(C)C)C(=O)c1cccc(Cl)c1 (racemic) | 0.9 |

---

- experimental-target: Acetylcholinesterase (AChE, EC 3.1.1.7) (Electrophorus electricus, UniProt O42275)
- Construct: purchased Sigma-Aldrich
- Sequence (O42275 24-633): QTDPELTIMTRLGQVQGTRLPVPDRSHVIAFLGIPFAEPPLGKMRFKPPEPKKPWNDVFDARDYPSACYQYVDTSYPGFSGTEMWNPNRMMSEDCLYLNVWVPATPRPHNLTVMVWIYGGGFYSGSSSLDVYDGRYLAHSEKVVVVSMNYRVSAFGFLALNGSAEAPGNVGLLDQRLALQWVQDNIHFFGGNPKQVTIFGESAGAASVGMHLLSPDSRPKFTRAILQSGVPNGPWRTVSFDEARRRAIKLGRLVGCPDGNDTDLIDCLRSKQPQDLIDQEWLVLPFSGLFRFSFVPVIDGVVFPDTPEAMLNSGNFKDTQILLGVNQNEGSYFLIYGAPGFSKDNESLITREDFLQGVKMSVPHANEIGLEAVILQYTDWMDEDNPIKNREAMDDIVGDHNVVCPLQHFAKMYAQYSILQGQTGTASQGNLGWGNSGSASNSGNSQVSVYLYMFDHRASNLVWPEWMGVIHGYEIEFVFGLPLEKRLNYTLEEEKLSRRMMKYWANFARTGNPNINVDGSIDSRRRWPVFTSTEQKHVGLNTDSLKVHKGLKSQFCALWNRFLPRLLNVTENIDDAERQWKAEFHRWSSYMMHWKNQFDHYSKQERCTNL
- experiment: Acetylcholinesterase inhibition, modified Ellman colorimetric method
- Type: biochemical
- measurement-conditions: AChE inhibition dose–response curve

| molecule | Hillslope |
| --- | --- |
| CC(C(=O)c1ccccc1Cl)N(C)C (racemic) | 2.5 |
| CCN(CC)C(C)C(=O)c1ccc(Cl)cc1 (racemic) | 0.8 |
| CC(C(=O)c1cccc(Cl)c1)N(C)C (racemic) | 1.2 |
| CC(C)NC(C)C(=O)c1cccc(Cl)c1 (racemic) | 0.8 |
| CCNC(C)C(=O)c1cccc(Cl)c1 (racemic) | 1.3 |
| CCNC(C)C(=O)c1ccccc1Cl (racemic) | 4.3 |
| CNC(C)C(=O)c1ccc(C)cc1 (centres unmarked) [Mephedrone (M), Mephedrone, reference compound] | 8.6 |
| CC(C(=O)c1ccccc1Cl)N1CCCC1 (racemic) | 1.5 |
| CNC(C)C(=O)c1ccccc1Cl (racemic) | 2.5 |
| CNC(C)C(=O)c1ccc(Cl)cc1 (racemic) | 1.5 |
| CNC(C)C(=O)c1cccc(Cl)c1 (racemic) | 3.7 |

---

- experimental-target: Acetylcholinesterase (AChE, EC 3.1.1.7) (Electrophorus electricus, UniProt O42275)
- Construct: purchased Sigma-Aldrich
- experiment: Acetylcholinesterase inhibition, modified Ellman colorimetric method
- Type: biochemical
- measurement-conditions: IC50, AChE inhibition, 0.03–2 mM, Ellman assay, Hill fit
IC50 less than 800 µM is met; IC50 greater than or equal to 800 µM is not met.

| compound | experimental-target | class-assignment |
| --- | --- | --- |
| CC(C(=O)c1cccc(Cl)c1)N1CCCC1 (racemic) [3-Cl-PPP (10)] | Acetylcholinesterase (AChE, EC 3.1.1.7) (Electrophorus electricus, UniProt O42275) | met |
| CC(C(=O)c1ccc(Cl)cc1)N1CCCC1 (racemic) [4-Cl-PPP (11)] | Acetylcholinesterase (AChE, EC 3.1.1.7) (Electrophorus electricus, UniProt O42275) | met |
| CC(C(=O)c1ccccc1Cl)N1CCCC1 (racemic) [2-Cl-PPP (9)] | Acetylcholinesterase (AChE, EC 3.1.1.7) (Electrophorus electricus, UniProt O42275) | met |
| CC(C)NC(C)C(=O)c1cccc(Cl)c1 (racemic) [3-CIC (17)] | Acetylcholinesterase (AChE, EC 3.1.1.7) (Electrophorus electricus, UniProt O42275) | met |
| CC(C(=O)c1cccc(Cl)c1)N(C)C (racemic) [3-CDC (13)] | Acetylcholinesterase (AChE, EC 3.1.1.7) (Electrophorus electricus, UniProt O42275) | not met |
| CCCCNC(C)C(=O)c1ccc(Cl)cc1 (racemic) [4-CBC (8)] | Acetylcholinesterase (AChE, EC 3.1.1.7) (Electrophorus electricus, UniProt O42275) | not met |
| CC(C(=O)c1ccccc1Cl)N(C)C (racemic) [2-CDC (12)] | Acetylcholinesterase (AChE, EC 3.1.1.7) (Electrophorus electricus, UniProt O42275) | met |
| CC(C)NC(C)C(=O)c1ccc(Cl)cc1 (racemic) [4-CIC (18)] | Acetylcholinesterase (AChE, EC 3.1.1.7) (Electrophorus electricus, UniProt O42275) | not met |
| CCN(CC)C(C)C(=O)c1ccc(Cl)cc1 (racemic) [4-Cl-DEC (16)] | Acetylcholinesterase (AChE, EC 3.1.1.7) (Electrophorus electricus, UniProt O42275) | met |
| CCNC(C)C(=O)c1ccc(Cl)cc1 (racemic) [4-CEC (6)] | Acetylcholinesterase (AChE, EC 3.1.1.7) (Electrophorus electricus, UniProt O42275) | not met |
| CC(C(=O)c1ccc(Cl)cc1)N(C)C (racemic) [4-CDC (14)] | Acetylcholinesterase (AChE, EC 3.1.1.7) (Electrophorus electricus, UniProt O42275) | met |
| CNC(C)C(=O)c1ccccc1Cl (racemic) [2-CMC (1)] | Acetylcholinesterase (AChE, EC 3.1.1.7) (Electrophorus electricus, UniProt O42275) | met |
| CCN(CC)C(C)C(=O)c1cccc(Cl)c1 (racemic) [3-Cl-DEC (15)] | Acetylcholinesterase (AChE, EC 3.1.1.7) (Electrophorus electricus, UniProt O42275) | met |
| CCCCNC(C)C(=O)c1cccc(Cl)c1 (racemic) [3-CBC (7)] | Acetylcholinesterase (AChE, EC 3.1.1.7) (Electrophorus electricus, UniProt O42275) | met |
| CCNC(C)C(=O)c1ccccc1Cl (racemic) [2-CEC (4)] | Acetylcholinesterase (AChE, EC 3.1.1.7) (Electrophorus electricus, UniProt O42275) | met |
